# assay_details: Pharmacokinetics of MJC13 (Formulation PT4) after IV bolus in rats, three-compartment model
# Assay type: in vivo, Sprague-Dawley rats
# recorded_conditions: male, Sprague-Dawley, rat, plasma, iv, 2 mg/kg, rat, single IV bolus 2 mg/kg, Formulation PT4, n = 8; read-out: Vss (volume of distribution at steady state)
quantity: Vd (L/kg)

{"smiles_structure": "O=C(Nc1cccc(Cl)c1Cl)C1CCCCC1", "experimental_value": 10.8}

====

# assay_details: Rat plasma protein binding by ultrafiltration
# Type: in vitro ADME
# recorded_conditions: 2000 ng/mL, 37° C.
quantity: fraction bound at 1 h, 2000 ng/mL

{"smiles_structure": "O=C(Nc1cccc(Cl)c1Cl)C1CCCCC1", "experimental_value": 0.972}

====

# assay_details: Pharmacokinetics of MJC13 (Formulation PT4) after IV bolus in rats, three-compartment model
# Type: in vivo, Sprague-Dawley rats
# recorded_conditions: male, Sprague-Dawley, plasma; rat, single IV bolus 2 mg/kg, Formulation PT4, n = 8; read-out: Cl (total body clearance)

{"compound": "O=C(Nc1cccc(Cl)c1Cl)C1CCCCC1 [MJC13]", "units": "mL/min/kg", "clearance": 6.04}

====

# assay_details: Pharmacokinetics of MJC13 (Formulation PT4) after IV bolus in rats, three-compartment model
# Format: in vivo, Sprague-Dawley rats
# recorded_conditions: male, Sprague-Dawley, rat, plasma, iv, 2 mg/kg, rat, single IV bolus 2 mg/kg, Formulation PT4, n = 8; read-out: V1 (volume of distribution of central compartment)

{"smiles_structure": "O=C(Nc1cccc(Cl)c1Cl)C1CCCCC1", "Vd (L/kg)": 0.744}

====

# assay_details: Solubility of MJC13 in various solvents, shake-flask method
# Assay type: physicochemical
# recorded_conditions: PEG 400, organic solvent or mixture, thermodynamic from solid, PEG 400, room temperature, read-out: Solubility
# Description: The solubility of MJC13 was evalulated. Because there is no ionizable functional group on the molecular structure, the solubility of MJC13 was expected to be low in water and barely affected by pH. In this work, the solubility of MJC13 in water, ethanol, propylene glycol, polyethylene glycol 400 (PEG 400), polysorbate 80 (Tween 80), olive oil, peanut oil, soybean oil, CAPTEX 200 and LABRAFAC Lipophile WL1349 was determined by a shake-flask method. […]
quantity: solubility at 48 h

{"smiles_structure": "O=C(Nc1cccc(Cl)c1Cl)C1CCCCC1", "quantity": "solubility at 48 h", "experimental_value": "23 mg/mL"}

====

# assay_details: Solubility of MJC13 in various solvents, shake-flask method
# Assay type: physicochemical
# recorded_conditions: Labrafac Lipophile WL1349, oil or lipid, thermodynamic from solid, Labrafac ™ Lipophile WL1349, room temperature, read-out: Solubility

{"compound": "O=C(Nc1cccc(Cl)c1Cl)C1CCCCC1 [MJC13]", "solubility at 48 h [mg/mL]": 24}

====

# assay_details: Pharmacokinetics of MJC13 (Formulation PT4) after IV bolus in rats, three-compartment model
# Format: in vivo, Sprague-Dawley rats
# recorded_conditions: male, Sprague-Dawley; rat plasma, single IV bolus 2 mg/kg, Formulation PT4, n = 8; read-out: Cmax (maximum concentration)

{"compound": "O=C(Nc1cccc(Cl)c1Cl)C1CCCCC1 [MJC13]", "Cmax [ng/mL]": 2710}

====

# assay_details: Solubility of MJC13 in various solvents, shake-flask method
# Type: physicochemical
# recorded_conditions: Captex 200, oil or lipid, thermodynamic from solid, Captex ® 200, room temperature, read-out: Solubility

{"molecule": "O=C(Nc1cccc(Cl)c1Cl)C1CCCCC1 [MJC13]", "units": "mg/mL", "solubility at 48 h": 31.9}

====

# assay_details: Solubility of MJC13 in various solvents, shake-flask method
# Assay type: physicochemical
# recorded_conditions: olive oil, oil or lipid, thermodynamic from solid, Olive oil, room temperature, read-out: Solubility

{"smiles_structure": "O=C(Nc1cccc(Cl)c1Cl)C1CCCCC1", "units": "mg/mL", "solubility at 48 h": 16.2}

====

# assay_details: Rat plasma protein binding by ultrafiltration
# Assay type: in vitro ADME
# recorded_conditions: 100 ng/mL, 37° C.

{"smiles_structure": "O=C(Nc1cccc(Cl)c1Cl)C1CCCCC1", "fraction bound at 1 h, 100 ng/mL": 0.981}

====

# assay_details: Pharmacokinetics of MJC13 (Formulation PT4) after IV bolus in rats, three-compartment model
# Format: in vivo, Sprague-Dawley rats
# recorded_conditions: male, Sprague-Dawley; rat plasma, single IV bolus 2 mg/kg, Formulation PT4, n = 8; read-out: AUC0-∞ (area under curve from time zero to infinity) (converted)

{"compound": "O=C(Nc1cccc(Cl)c1Cl)C1CCCCC1 [MJC13]", "AUC(0-inf), ng·h/mL": 6640}

====

# assay_details: Solubility of MJC13 in 50% (w/v) HP-β-CD aqueous solution
# Type: physicochemical
# recorded_conditions: 50% (w/v) HP-β-CD aqueous solution, aqueous with cosolvent or surfactant or cyclodextrin, thermodynamic from solid; room temperature, 72 hours
# Description: An excess amount of MJC13 was added to a sealed glass vial (2 ml) containing saturated (50% w/v) 2-hydroxypropyl-β-cyclodextrin (HP-β-CD) aqueous solution. The vial was shaken at room temperature for 72 hours. Thereafter, the solution was centrifuged, filtered through a 0.2 μm membrane and analyzed for MJC13 by the LC/MS/MS method of Example 1. Experiments were conducted in triplicate. […]

{"smiles_structure": "O=C(Nc1cccc(Cl)c1Cl)C1CCCCC1", "solubility at 72 h [µg/mL]": 2600}

====

# assay_details: Solubility of MJC13 in various solvents, shake-flask method
# Type: physicochemical
# recorded_conditions: water, thermodynamic from solid, Water, room temperature, read-out: Solubility

{"molecule": "O=C(Nc1cccc(Cl)c1Cl)C1CCCCC1 [MJC13]", "solubility at 48 h, µg/mL": 0.28}

====

# assay_details: Solubility of MJC13 in various solvents, shake-flask method
# Type: physicochemical
# recorded_conditions: peanut oil, oil or lipid, thermodynamic from solid, Peanut oil, room temperature, read-out: Solubility
# Protocol: The solubility of MJC13 was evalulated. Because there is no ionizable functional group on the molecular structure, the solubility of MJC13 was expected to be low in water and barely affected by pH. In this work, the solubility of MJC13 in water, ethanol, propylene glycol, polyethylene glycol 400 (PEG 400), polysorbate 80 (Tween 80), olive oil, peanut oil, soybean oil, CAPTEX 200 and LABRAFAC Lipophile WL1349 was determined by a shake-flask method. […]
quantity: solubility at 48 h (mg/mL)

{"molecule": "O=C(Nc1cccc(Cl)c1Cl)C1CCCCC1 [MJC13]", "experimental_value": 15.6}

====

# assay_details: Rat plasma protein binding by ultrafiltration
# Assay type: in vitro ADME
# recorded_conditions: 5000 ng/mL, 37° C.
quantity: fraction bound at 1 h, 5000 ng/mL

{"molecule": "O=C(Nc1cccc(Cl)c1Cl)C1CCCCC1 [MJC13]", "experimental_value": 0.979}

====

# assay_details: Solubility of MJC13 in various solvents, shake-flask method
# Format: physicochemical
# recorded_conditions: propylene glycol, organic solvent or mixture, thermodynamic from solid, Propylene glycol, room temperature, read-out: Solubility
quantity: solubility at 48 h

{"smiles_structure": "O=C(Nc1cccc(Cl)c1Cl)C1CCCCC1", "quantity": "solubility at 48 h", "experimental_value": "5700 µg/mL"}

====

# assay_details: Pharmacokinetics of MJC13 (Formulation PT4) after IV bolus in rats, three-compartment model
# Assay type: in vivo, Sprague-Dawley rats
# recorded_conditions: male, Sprague-Dawley, rat, plasma, iv, 2 mg/kg, rat plasma, single IV bolus 2 mg/kg, Formulation PT4, n = 8; read-out: T1/2α (elimination half-life of α-phase)
quantity: half-life (min)

{"compound": "O=C(Nc1cccc(Cl)c1Cl)C1CCCCC1 [MJC13]", "units": "min", "experimental_value": 5.64}

====

# assay_details: Lipophilicity (log P) between water and 1-octanol, shake-flask
# Format: physicochemical
# recorded_conditions: 1-octanol/water, room temperature, read-out: experimental log P
quantity: logP at 72 h

{"smiles_structure": "O=C(Nc1cccc(Cl)c1Cl)C1CCCCC1", "experimental_value": 6.49}

====

# assay_details: Rat plasma protein binding by ultrafiltration
# Assay type: in vitro ADME
# recorded_conditions: 1000 ng/mL, 37° C.

{"molecule": "O=C(Nc1cccc(Cl)c1Cl)C1CCCCC1 [MJC13]", "fraction bound at 1 h, 1000 ng/mL": 0.996}

====

# assay_details: Pharmacokinetics of MJC13 (Formulation PT4) after IV bolus in rats, three-compartment model
# Type: in vivo, Sprague-Dawley rats
# recorded_conditions: male, Sprague-Dawley, rat, plasma, iv, 2 mg/kg, rat plasma, single IV bolus 2 mg/kg, Formulation PT4, n = 8; read-out: T1/2γ (elimination half-life of γ-phase)
quantity: half-life (h)

{"smiles_structure": "O=C(Nc1cccc(Cl)c1Cl)C1CCCCC1", "units": "h", "experimental_value": 32.3}
